Numbers sourced from the supplement of paper PMC10065799.

- Test system: AncSZ
- Protocol: phosphorylation enrichment, bacterial display (enrichment ratio); higher = better substrate or ligand; peptides without Tyr show the background;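 note: 11-residue human phosphosite peptides and single-mutation variants displayed on the E. coli surface, counted by deep sequencing, each peptide's frequency after selection divided by its frequency in the unselected input library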;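 note: frequency after pTyr selection over input frequency; kinase dosed for 20-30% of maximal phosphorylation in three min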
Parameter threshold = 1. Response is true when phosphorylation enrichment meets or exceeds it, else false.

Study these solved cases before continuing.
DVMDFYKTLRG [NR3C1_Y30] | false
FPLELYERVRM [PRKCG_Y312_YF] | true
KWELRYMHSRV [ABCD1_Y281_G277W] | true
ADFPDCKFRPR [SOX11_Y116_Y116C_YF] | false
TDGIAYEFRVT | true

## Task Does phosphorylation enrichment meet or surpass 1 for SPYAVYLFFTF [RPGRIP1_Y826_R827L] ?
## Result false

## Task For this sequence, is measured phosphorylation enrichment 1 or higher? HPYNSYTYPRL [PAK5_Y316_S312P]
## Result true

## Task Reported phosphorylation enrichment reaches at least 1 for FQEKSYIKGTS [LCTL_Y331_L326F] ?
## Result false

## Task phosphorylation enrichment >= 1 for TFRPPYFHRDC [HGD_Y333_N337D_YF] ?
## Result false

## Task Hi, just wondering whether PYVYYYSYLLK [PTEN_Y178_R173P] shows phosphorylation enrichment of 1 or higher.
## Result true

## Task # check: phosphorylation enrichment of EFNINYNNEPP [THG1L_Y228_L232P] is greater than or equal to 1
## Result true

## Task # bool: phosphorylation enrichment of WGLRSYFETSK [MAGED2_Y448_YF] >= 1
## Result false

====

The sequences listed here are annotated with their phosphorylation enrichment.
- Tested on: Fyn (UniProt P06241)
- Sequence (P06241 whole entry, looked up): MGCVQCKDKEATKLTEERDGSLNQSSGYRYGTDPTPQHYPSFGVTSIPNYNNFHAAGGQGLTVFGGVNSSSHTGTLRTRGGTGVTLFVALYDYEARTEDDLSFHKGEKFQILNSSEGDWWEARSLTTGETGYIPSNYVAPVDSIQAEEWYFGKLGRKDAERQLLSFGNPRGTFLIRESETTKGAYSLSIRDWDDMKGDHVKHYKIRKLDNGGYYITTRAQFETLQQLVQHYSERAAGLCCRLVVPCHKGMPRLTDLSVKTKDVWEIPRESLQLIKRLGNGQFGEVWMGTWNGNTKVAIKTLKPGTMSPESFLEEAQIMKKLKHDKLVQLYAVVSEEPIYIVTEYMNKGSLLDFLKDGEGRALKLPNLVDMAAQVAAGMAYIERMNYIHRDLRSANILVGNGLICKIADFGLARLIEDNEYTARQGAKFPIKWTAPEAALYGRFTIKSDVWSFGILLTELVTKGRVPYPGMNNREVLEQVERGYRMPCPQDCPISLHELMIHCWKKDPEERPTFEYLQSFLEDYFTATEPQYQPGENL
- Protocol: phosphorylation enrichment, bacterial display (enrichment ratio); higher = better substrate or ligand; peptides without Tyr show the background
Would you mind answering with just the numeric figure?

Recorded phosphorylation enrichment, per entry:
EREYKYGAHKY [OAT_Y50_N54K] | 0.369
IDLEKYKLLPE [DHFR_Y157] | 0.511
ALRHYYKLNII [ETV6_Y402] | 0.506

## Task Quick one: phosphorylation enrichment for DLRTGYSVPFG [TGM1_Y370_Y365D_YF] ?
## Result 0.48

## Task Please report the recorded phosphorylation enrichment for KNKNRYKNVLP [PTPN11_Y279_I282V] .
## Result 0.372

====

- Tested on: Jak2 (UniProt O60674)
- Sequence (O60674 whole entry, looked up): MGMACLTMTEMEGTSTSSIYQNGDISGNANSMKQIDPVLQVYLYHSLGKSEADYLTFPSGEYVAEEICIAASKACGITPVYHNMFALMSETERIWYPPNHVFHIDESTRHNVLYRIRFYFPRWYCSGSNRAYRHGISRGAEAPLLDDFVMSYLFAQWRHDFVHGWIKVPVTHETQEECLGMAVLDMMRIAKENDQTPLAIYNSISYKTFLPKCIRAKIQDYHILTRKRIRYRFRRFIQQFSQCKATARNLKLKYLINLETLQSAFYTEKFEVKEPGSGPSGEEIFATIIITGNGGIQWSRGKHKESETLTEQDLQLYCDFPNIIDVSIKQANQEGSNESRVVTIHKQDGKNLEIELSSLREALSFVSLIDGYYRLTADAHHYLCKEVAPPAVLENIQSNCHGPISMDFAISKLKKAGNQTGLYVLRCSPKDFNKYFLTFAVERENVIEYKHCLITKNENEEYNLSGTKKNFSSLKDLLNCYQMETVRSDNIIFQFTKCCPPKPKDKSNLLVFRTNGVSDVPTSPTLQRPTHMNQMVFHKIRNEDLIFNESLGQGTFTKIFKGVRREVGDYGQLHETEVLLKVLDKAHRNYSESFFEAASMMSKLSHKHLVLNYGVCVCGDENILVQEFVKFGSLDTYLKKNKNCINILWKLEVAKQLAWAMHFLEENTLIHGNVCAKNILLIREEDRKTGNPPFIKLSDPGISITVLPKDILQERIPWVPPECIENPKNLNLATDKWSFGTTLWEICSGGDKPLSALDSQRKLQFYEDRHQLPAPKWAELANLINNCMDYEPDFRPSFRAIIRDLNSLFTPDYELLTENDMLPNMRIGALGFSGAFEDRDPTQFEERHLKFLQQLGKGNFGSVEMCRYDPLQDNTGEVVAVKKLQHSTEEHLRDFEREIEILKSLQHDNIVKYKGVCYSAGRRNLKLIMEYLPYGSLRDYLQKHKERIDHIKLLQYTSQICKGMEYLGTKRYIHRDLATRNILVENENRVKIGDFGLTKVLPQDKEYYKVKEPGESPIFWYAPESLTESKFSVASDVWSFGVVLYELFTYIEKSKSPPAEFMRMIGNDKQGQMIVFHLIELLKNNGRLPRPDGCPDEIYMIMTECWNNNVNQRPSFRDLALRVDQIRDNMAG
- Protocol: phosphorylation enrichment, bacterial display (enrichment ratio); higher = better substrate or ligand; peptides without Tyr show the background
Measurement label: phosphorylation enrichment
Write the number on its own, no unit after it.

The following sequences have reported results that may help.
TVLEHYRRTHC [MYBPC3_Y1119] | 0.606
GFSRHCEDGFP [CTNND1_Y217_Y217C_YF] | 0.724
TNLVPYTRIHF [TUBA1A_Y262_P263T] | 0.682
SVVVPSEPPEV [TP53_Y220_Y220S] | 0.851
NELTFYCCKKD [CD59_Y87_YF] | 1.29

## Task Give the measured phosphorylation enrichment of DPYHVYIKNRV [KCNE3_Y95] .
## Result 0.872

## Task For the sequence shown here, VDHFGYNKDDK [APOB_Y740_T741N] , give the reported phosphorylation enrichment.
## Result 1.1

## Task So what does the record say about phosphorylation enrichment for QDKDLYPCPGT [RLF_Y671_R668K] ?
## Result 0.996

## Task Reported phosphorylation enrichment, sequence MENFIYESMQF [CYP19A1_Y361_R365Q_YF] : ____
## Result 1.04

## Task Recorded phosphorylation enrichment of EAEPFYRSLRD [NPHS1_Y1139_YF] , please.
## Result 0.893

## Task Suppose we examine the sequence FSGDCYRIQGR [DDR2_Y741_Y740C_YF] ; what phosphorylation enrichment value has been reported?
## Result 0.764

## Task # phosphorylation enrichment lookup, item FSPGSNERETF [NF1_Y2192_Y2192N]
## Result 0.849

## Task For the sequence CENNRYGMGTS [PDHA1_Y227] , what phosphorylation enrichment is on record?
## Result 0.999

## Task Fill in: phosphorylation enrichment of GLRCGYGVLGG [KRTAP20-2_Y15_Y13C] is ___
## Result 0.825

## Task May I ask what phosphorylation enrichment has been recorded for TTTQAYRVDER [PRKN_Y391] ?
## Result 0.57
